Data origin, for the record: PubChem BioAssay AID449762

- ASSAY_OVERVIEW: M. tuberculosis growth inhibition, HTS (AID 449762);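 also: bacterial growth assessed after seven days of incubation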
- CONDITION_SUMMARY: M. tuberculosis H37Rv growth inhibition, 7H9 media; at 25 µM; hits give high values
Among all 330,000 compounds or so, about 1,900 (0.58%) were called active. Roughly 4% stayed inconclusive and do not appear here. The list is a sample of the results. Potency and affinity values are given separately.
METRIC_NAME: inhibition (%)
# value in %; strip the unit string

Challenge: Given the compound CNC(=O)CSc1nnc(-c2ccco2)n1-c1cccc(C)c1C , what is its reported inhibition?
Response given: -8.51

Challenge: Given the compound CN(C)C1(CNC(=O)Nc2ccccc2)CCCCC1 , what is its reported inhibition?
Response given: 3.43

Challenge: Given the compound CC1=C(C(=O)Nc2ccccc2)C(c2ccco2)C(C#N)=C(SCC(=O)Nc2cccc(C)c2C)N1 (stereo unspecified) , what is its reported inhibition?
Response given: -1.31

Challenge: Given the compound O=C1c2ccccc2CN1C(CO)Cc1ccccc1 (stereo unspecified) , what is its reported inhibition?
Response given: -7.4

Challenge: Given the compound CCN(CC)S(=O)(=O)c1ccc(NC(=O)c2ccc(Cl)nc2)cc1 , what is its reported inhibition?
Response given: 4

Challenge: Given the compound O=C(CC(=O)NC1CCCCC1)N/N=C/c1ccccc1F , what is its reported inhibition?
Response given: 7.41

Challenge: Given the compound CCOC(=O)c1ccc[n+](CC(=O)c2ccc(OC)cc2)c1 , what is its reported inhibition?
Response given: -6.92

Challenge: Given the compound CC(=O)C1=C(C)NC(SCC(N)=O)=C(C#N)C1c1ccco1 (stereo unspecified) , what is its reported inhibition?
Response given: -6.56

Challenge: Given the compound CCOC(=O)c1[nH]c2ccccc2c1NC(=O)c1ccc(Br)o1 , what is its reported inhibition?
Response given: -1.61

Challenge: Given the compound COCCn1c(CN2CCN(C(=O)c3ccco3)CC2)nc2c1c(=O)n(C)c(=O)n2C , what is its reported inhibition?
Response given: 13

Challenge: Given the compound N#CC(C(=O)Nc1cccc(Cl)c1)=C1Nc2ccccc2N1 , what is its reported inhibition?
Response given: 2.4

* * *

- ASSAY_OVERVIEW: M. tuberculosis growth inhibition, HTS (AID 449762);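 also: bacterial growth assessed after seven days of incubation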
- CONDITION_SUMMARY: M. tuberculosis H37Rv growth inhibition, 7H9 media; at 25 µM; hits give high values
The campaign covered roughly 330,000 compounds. About 1,900 (0.58%) were called active. Another 4% or so got no clear call; they are omitted. A selection follows. Potency and affinity values are given separately.
METRIC_NAME: inhibition (%)
# value in %; strip the unit string

Known results for molecules:
1. CCn1c(SCC(=O)N2CCCCC2C)nnc1-c1ccco1 (centres undefined) : -6.38
2. CC(C)(C)OC(=O)NCCCCCc1nnc(SCc2ccccc2)o1 : 68.1

Challenge: Given the molecule CCOC(=O)C1C(=O)NC(SCC(=O)Nc2nccs2)=C(C#N)C1c1ccccc1OCC (centres undefined) , what is its reported inhibition?
Response given: 55.1

Challenge: Given the molecule O=C(O)CCc1nc(-c2ccccc2)c(-c2ccccc2)o1 , what is its reported inhibition?
Response given: 6.1

Challenge: Given the molecule O=C(NCC(c1ccco1)N1CCOCC1)C1CCCCC1 (centres undefined) , what is its reported inhibition?
Response given: 1.93

Challenge: Given the molecule COC(=O)Cn1c(=O)oc2ccc(C)cc21 , what is its reported inhibition?
Response given: -1.52

* * *

- ASSAY_OVERVIEW: M. tuberculosis growth inhibition, HTS (AID 449762);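 also: bacterial growth assessed after seven days of incubation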
- CONDITION_SUMMARY: M. tuberculosis H37Rv growth inhibition, 7H9 media; at 25 µM; hits give high values
The campaign covered roughly 330,000 compounds. About 1,900 (0.58%) were called active. Inconclusive results (about 4%) are left out. Only a sample is shown. Entries with a potency or affinity are not part of this list.
METRIC_NAME: inhibition (%)
# value in %; strip the unit string

Known results for compounds:
1. Cc1cc(=O)n2ccsc2n1 : 0.36
2. Cc1ccc(-c2nsc3c(N4CCC(C(N)=O)CC4)ncnc23)cc1 : -5.48
3. CN1C(=O)N(C)C2(c3ccccc3)N(C(C)(C)C)C(=O)NC12c1ccccc1 (stereo not drawn) : -0.92
4. CCOC(=O)c1c(C)n(C)c2ccc(OC(=O)c3ccc([N+](=O)[O-])cc3)cc12 : 25.7
5. CC(OC(=O)c1cccc(NS(C)(=O)=O)c1)C(=O)Nc1ccc2c(c1)OCO2 (stereo not drawn) : -1.53
6. CCCOc1ccc(C(=O)N/N=C/c2ccc(-c3ccc(S(=O)(=O)Nc4ncccn4)cc3)o2)cc1 : 7.99
7. COc1cc2c(cc1OC)C1(NCC2)C(=O)Nc2ccccc21 (stereo not drawn) : 4.39
8. Nc1ccc(C(=O)OCc2nc3cc4ccccc4cc3[nH]2)cc1 : 3.37

Challenge: Given the compound Cc1ccn2c(=O)cc(C)nc2c1 , what is its reported inhibition?
Response given: -4.1

Challenge: Given the compound Cc1ccc(C)c(NNC(=O)C(=O)NNc2cc(C)ccc2C)c1 , what is its reported inhibition?
Response given: 52.8

Challenge: Given the compound Cc1c(Cl)cccc1NC(=S)N1CCN(C(=O)c2ccco2)CC1 , what is its reported inhibition?
Response given: -0.43

Challenge: Given the compound O=C(Nc1ccc(Br)cc1Br)c1cccc2c1C(=O)N(C1CCCCC1)C2 , what is its reported inhibition?
Response given: 10.8

Challenge: Given the compound COc1ccc(NC(=O)C2CCN(S(C)(=O)=O)CC2)cc1 , what is its reported inhibition?
Response given: -4.9

* * *

- ASSAY_OVERVIEW: M. tuberculosis growth inhibition, HTS (AID 449762);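 also: bacterial growth assessed after seven days of incubation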
- CONDITION_SUMMARY: M. tuberculosis H37Rv growth inhibition, 7H9 media; at 25 µM; hits give high values
The whole screen tested about 330,000 compounds, of which about 1,900 (0.58%) were called active. Another 4% or so got no clear call; they are omitted. These entries were drawn from the full list. Results with a measured potency or affinity are listed apart.
METRIC_NAME: inhibition (%)
# value in %; strip the unit string

1) Cc1ccc(NC(=O)C2CCCN(c3ncccn3)C2)c(C)c1 (stereo unspecified) : 7.16

Challenge: Given the molecule COc1ccccc1C(=O)NNC(=O)C12CC3CC(CC(C3)C1)C2 , what is its reported inhibition?
Response given: -6.93

Challenge: Given the molecule O=C1NC(=O)C2(Cc3ccccc3N3CCCC32)C(=O)N1Cc1ccccc1 (stereo unspecified) , what is its reported inhibition?
Response given: -3.61

Challenge: Given the molecule Cc1cc(/C=N/O)c(C)n1-c1ccccc1 , what is its reported inhibition?
Response given: -2.51

Challenge: Given the molecule CC(CC(=O)N1CCN(S(=O)(=O)c2ccc(Cl)cc2)CC1)n1cncn1 (stereo unspecified) , what is its reported inhibition?
Response given: 7.22

Challenge: Given the molecule CN(C)c1ccc(/C=C/c2ccc3ccccc3[n+]2C)cc1 , what is its reported inhibition?
Response given: 66.1

* * *

- ASSAY_OVERVIEW: M. tuberculosis growth inhibition, HTS (AID 449762);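 also: bacterial growth assessed after seven days of incubation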
- CONDITION_SUMMARY: M. tuberculosis H37Rv growth inhibition, 7H9 media; at 25 µM; hits give high values
Out of some 330,000 compounds screened, about 1,900 (0.58%) were called active. Another 4% or so got no clear call; they are omitted. A selection follows. Potency and affinity values are given separately.
METRIC_NAME: inhibition (%)
# value in %; strip the unit string

Known results for compounds:
1. O=C1CCCC/C1=C/Nc1ccc2c(c1)OCO2 : 59.1
2. Cc1ccc(Cn2ncc3c(N4CCN(Cc5ccc(Cl)cc5)CC4)ncnc32)cc1 : 35
3. CCOC(=O)C(CC)Sc1ncnc2c1nnn2-c1ccc(F)cc1 (stereo not given) : -6.34
4. Cc1ccc(N2C(=O)N(CC(=O)c3cc(C)ccc3C)C(=O)C2C)cc1 (stereo not given) : 4.01
5. COc1cc(-c2noc(C)c2C(=O)NCc2ccc(C)o2)cc(OC)c1OC : 3.84
6. C[C@H](CO)N1C[C@H](C)[C@@H](CN(C)C(=O)Nc2ccccc2)Oc2ccc(NC(=O)Cc3ccccc3)cc2C1=O : 0.43

From here, focus on the item given below.
Challenge: Given the compound O=C1/C(=C/Nc2cccc([N+](=O)[O-])c2)CCc2ccccc21 , what is its reported inhibition?
Response given: 2.58

* * *

- ASSAY_OVERVIEW: M. tuberculosis growth inhibition, HTS (AID 449762);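 also: bacterial growth assessed after seven days of incubation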
- CONDITION_SUMMARY: M. tuberculosis H37Rv growth inhibition, 7H9 media; at 25 µM; hits give high values
Among all 330,000 compounds or so, about 1,900 (0.58%) were called active. Not shown: some 4% with an inconclusive outcome. The list is a sample of the results. Results with a measured potency or affinity are listed apart.
Overview of recorded inhibition for various molecules
# value in %; strip the unit string

Challenge: Given the molecule COc1ccc(-c2nn(-c3ccccc3)cc2CNC(=O)c2cccc([N+](=O)[O-])c2)cc1 , what is its reported inhibition?
Response given: 8.99

Challenge: Given the molecule Cc1ccc(/C=C/C(=O)N2CCN(S(=O)(=O)c3cccs3)CC2)o1 , what is its reported inhibition?
Response given: -4.62

Challenge: Given the molecule COc1cc(-c2nnc(CSc3nnc(N)s3)o2)cc(OC)c1OC , what is its reported inhibition?
Response given: -0.69

Challenge: Given the molecule Cc1cc(C(=O)COc2ccc3ccc(=O)oc3c2)c(C)n1C , what is its reported inhibition?
Response given: -2.83

Challenge: Given the molecule COc1ccc(/C=C/C(=O)OCC(=O)NCC2CCCO2)cc1 (stereo unspecified) , what is its reported inhibition?
Response given: 2.24

Challenge: Given the molecule C=CCN1C(=O)c2ccc(C(=O)N(C)CC(=O)Nc3cccc(F)c3)cc2C1=O , what is its reported inhibition?
Response given: 0

Challenge: Given the molecule O=C(COC(=O)/C=C/c1ccc(F)cc1)NCC1CCCO1 (stereo unspecified) , what is its reported inhibition?
Response given: 6.52

Challenge: Given the molecule S=C(Nc1cc(Cl)cc(Cl)c1)N1CCCC1 , what is its reported inhibition?
Response given: 0.04
